system: TK-10; assay: NCI tumour cell line growth inhibition, 48 h
Active and inactive are the calls of the source. Rule as the data show it: active = GI50 up to about 1.1 µM and inactive = higher.
Record form. Attribute: GI50. Fill in for each entry.

Here is how some compounds turned out for GI50.
Enquiry: Fill in: GI50 of COC(=O)C1=C(C)N(NC(N)=O)C2(N)N(NC(N)=O)C(C)=C(C(=O)OC)C12C#N (centres undefined) is ___
Return: > 100 µM (inactive)

Enquiry: Fill in: GI50 of CC1=NC(C)(C)[N+]([O-])=C1 is ___
Return: > 10 µM (inactive)

Enquiry: Fill in: GI50 of N=C1N(c2ccccc2)C(=S)/C(=N/c2ccccc2)N1c1ccccc1 is ___
Return: 15 µM (inactive)

Take each entry in turn and give its GI50.
1. C=C(CC[C@@H](C(=O)O)[C@H]1[C@H](O)C[C@@]2(C)C3=CC[C@@H](C(=C)C)[C@](C)(CCC(=O)O)C3=CC[C@]12C)C(C)C
2. O=C(O)c1cc2cc(OCc3ccccc3)ccc2[nH]1

Return:
1: 17.8 µM (inactive); 2: > 100 µM (inactive)

====

system: A498; experiment: NCI tumour cell line growth inhibition, 48 h
Calls of active or inactive are those of the source. No stated cut-off is given here; in the data, active = GI50 up to about 1.1 µM and inactive = higher. Where a SMILES comes first, the peptide text is derived from it. The star is where a group is joined. Cbz = O=C(OCc1ccccc1)*; NHNH2 = NN*
Record form. Attribute: GI50. Fill in for each entry.

Take each entry in turn and give its GI50.
1. Cc1ccc(-c2cc(-c3cc(-c4ccc(C)cc4C)[nH]n3)[nH]n2)c(C)c1
2. COP(=O)(O)C(N)Cc1c[nH]c2ccccc12 (centres undefined)

Return:
["16.6 µM (inactive)", "> 100 µM (inactive)"]

Take each entry in turn and give its GI50.
1. O=C1C=CC(O)(C#CCO)C=C1
2. CCOC(=O)CCC(NC(=O)OCc1ccccc1)C(=O)NC(CCC(=O)OCC)C(=O)NN (centres undefined) (Cbz-Glu(OEt)-Glu(OEt)-NHNH2; configuration not given here)

Return:
1. 22.4 µM (inactive)
2. > 100 µM (inactive)

====

system: UACC-257; experiment: NCI tumour cell line growth inhibition, 48 h
Activity calls are given as the source filed them. Rule as the data show it: active = GI50 up to about 1.1 µM and inactive = higher.
Hi! Could you answer with just one of these? Yes = active, No = inactive

Answered cases to consult:
Enquiry: Query: recorded result category for O=C1Oc2ccccc2N/C1=C/C(=O)c1ccc([N+](=O)[O-])cc1 in this test
Return: No

Enquiry: Query: recorded result category for C[N+](C)(C)CC1CCc2ccccc2C1=O (stereo not given) in this test
Return: No

Enquiry: Query: recorded result category for C=C1CC(C)(c2ccc(Nc3nc4ccccc4c4occc34)cc2)OC1=O (stereo not given) in this test
Return: Yes

Enquiry: Query: recorded result category for Cc1noc2nnn(-c3ccc(Cl)cc3)c(=O)c12 in this test
Return: No

Others:
Enquiry: Query: recorded result category for C=CCNC(=O)NNC(O)(C(=O)OCC)C(F)(F)F (stereo not given) in this test
Return: No

Enquiry: Query: recorded result category for ClC1=C(Cc2ccccc2)Cc2ccc3c(c21)CCC3 in this test
Return: No

Enquiry: Query: recorded result category for O=C1c2ccccc2-c2nc(-c3ccccc3)cc3c2c1nc1ccccc13 in this test
Return: No

Enquiry: Query: recorded result category for c1ccc(Nc2nnc(-c3ccccc3Nc3ccccc3-c3nnc(Nc4ccccc4)s3)s2)cc1 in this test
Return: No

====

test system: DMS-273; assay: NCI tumour cell line growth inhibition, 48 h
Calls of active or inactive are those of the source. No stated cut-off is given here; in the data, active = GI50 up to about 1.1 µM and inactive = higher.
Hi! Could you answer with just one of these? yes for active, no for inactive

Enquiry: Query: recorded result category for O=c1ccn(C2(CO)C=C(CO)C(O)C2O)c(=O)[nH]1 (stereo not given) in this test
Return: no

Enquiry: Query: recorded result category for CNC(C)Cc1ccc(O)cc1 (stereo not given) in this test
Return: no

Enquiry: Query: recorded result category for CN(C)C(=O)/C=C/c1c[nH]c(=O)[nH]c1=O in this test
Return: no

Enquiry: Query: recorded result category for C=C(CCCCCCCCC)CC(=O)SCCNC(=O)CCNC(=O)C(O)C(C)(C)COP(=O)(O)OP(=O)(O)OCC1OC(n2cnc3c(N)ncnc32)C(O)C1OP(=O)(O)O (stereo not given) in this test
Return: no

Enquiry: Query: recorded result category for CCCCCCCCCCCc1noc2c1C(=O)C(O)CC2 (stereo not given) in this test
Return: no

Enquiry: Query: recorded result category for CS(=O)(=O)NNS(=O)(=O)c1cccc([N+](=O)[O-])c1 in this test
Return: no

====

Record form. Attribute: GI50. Fill in for each entry.
tested on: A498; experiment: NCI tumour cell line growth inhibition, 48 h
Active and inactive are the calls of the source. No stated cut-off is given here; in the data, active = GI50 up to about 1.1 µM and inactive = higher.

Here is how some molecules turned out for GI50.
Enquiry: Record lookup: for A498, what GI50 belongs to COC1=CC23C=CC1[C@@H](c1ccccc1)C2=C(C)C(=O)N3C(=O)NC1CCCCC1 (some centres not stated) ?
Return: 25.6 µM (inactive)

Enquiry: Record lookup: for A498, what GI50 belongs to CC1NOC(=O)C1/N=N/c1ccccc1Cl (configuration not stated) ?
Return: 17 µM (inactive)

Enquiry: Record lookup: for A498, what GI50 belongs to CC(C)=CCC[C@@H](C)C1=C(N)C(=O)C(C)=C(O)C1=O ?
Return: 29.9 µM (inactive)

Enquiry: Record lookup: for A498, what GI50 belongs to COc1cccc(-c2cc(O)c3cccnc3n2)c1 ?
Return: 0.516 µM (active)

Enquiry: Record lookup: for A498, what GI50 belongs to Cc1ccc(NS(=O)(=O)c2cc(C(C)(C)C)ccc2OCCOCCOCCOc2ccc(C(C)(C)C)cc2S(=O)(=O)Nc2ccc(C)cc2)cc1 ?
Return: > 100 µM (inactive)

Take each entry in turn and give its GI50.
1. CCOC(=O)C1=COC(C)(c2ccccc2)CC1=O (configuration not stated)
2. CN(C)C(=O)/C=C/c1c[nH]c(=O)[nH]c1=O
3. CCCCCCCCCCCCCCN [TETRADECYLAMINE]
4. Cn1cc(-c2ccc3c4ccccc4n(C)c3c2)c2ccccc21
5. C/C(CC(=O)Nc1ccc(C)c(C)c1)=N\N(c1ccccc1)c1ccccc1
6. C/C(=C\c1ccccc1)C(O)C(=O)c1nc2ccc(Cl)cc2nc1O (configuration not stated)
7. NC(=O)N/N=C(\C(=O)C(=O)Nc1ccc(Cl)c(C(F)(F)F)c1)c1nc2ccc(C(=O)c3ccccc3)cc2nc1O
8. COc1ccc(C2=CC3CCC2C3)cc1 (configuration not stated)

Return:
1: > 100 µM (inactive); 2: > 500 µM (inactive); 3: > 100 µM (inactive); 4: > 100 µM (inactive); 5: > 100 µM (inactive); 6: > 100 µM (inactive); 7: 36.9 µM (inactive); 8: 77.3 µM (inactive)

Take each entry in turn and give its GI50.
1. CN1N=C(c2ccncc2)OC1c1cccc(F)c1 (configuration not stated)
2. O=C(Nc1ccc2c(c1)oc(=O)c1ccccc12)C(Cl)Cl
3. c1cc2c(cnc3cscc32)s1
4. CSc1nc(-c2ccc(C)cc2)c(C#N)c(=O)[nH]1
5. Cc1cccc(NC(=O)/C=C/c2ccc(N(CCC#N)CCC#N)cc2C)c1
6. CC1=C(C(=O)Nc2ccc([N+](=O)[O-])cc2)C(c2cccc([N+](=O)[O-])c2)C(C(=O)Nc2ccc([N+](=O)[O-])cc2)=C(C)N1
7. CCC(C)NC1=NCC(C)S1 (configuration not stated)
8. CCOC(=O)CSc1cc[nH]c(=O)n1

Return:
["> 100 µM (inactive)", "> 100 µM (inactive)", "> 100 µM (inactive)", "> 100 µM (inactive)", "> 100 µM (inactive)", "32.8 µM (inactive)", "> 100 µM (inactive)", "> 100 µM (inactive)"]

Take each entry in turn and give its GI50.
1. CC(=O)C1(c2ccccc2)CCCN(C)CC1 (configuration not stated)
2. Cc1cc(S(=O)(=O)NC2=Nc3ccc(Cl)cc3C(c3ccccc3)N2)c(S)cc1Cl (configuration not stated)
3. CC1=NC(C)(C)[N+]([O-])=C1
4. O=S1(=O)OCCOS(=O)(=O)C1C1c2ccccc2-c2ccccc21
5. Cc1ccc(-n2cc(-c3ccc(Cl)cc3)c3c(=N)n(N)cnc32)cc1

Return:
> 100 µM (inactive)
> 100 µM (inactive)
> 10 µM (inactive)
> 100 µM (inactive)
15.9 µM (inactive)

Take each entry in turn and give its GI50.
1. NNC1=Nc2ccc(Cl)cc2C(=S)N2CSCC12 (configuration not stated)
2. CO/C(=N\N=C(/c1ccccc1)C(F)(F)F)c1ccncc1

Return:
["> 100 µM (inactive)", "87.5 µM (inactive)"]

Take each entry in turn and give its GI50.
1. COc1cccc(-c2nccc3c(OCc4ccccc4)c(OC)c(OC)cc23)c1
2. Cn1c(=O)cc(NNc2ccc(Cl)c(Cl)c2)[nH]c1=O
3. Cc1cc2nc3c(N)nn(CCN(C)C)c3nc2cc1C
4. CCCCCC[C@H]1C(=O)O[C@H](C)[C@H](NC(=O)c2cccc(NC=O)c2OC)C(=O)O[C@@H](C)[C@@H]1OC(=O)C(C)CC.CCCCCC[C@H]1C(=O)O[C@H](C)[C@H](NC(=O)c2cccc(NC=O)c2OC)C(=O)O[C@@H](C)[C@@H]1OC(=O)CC(C)C (some centres not stated)
5. COC(=O)C1=C(C)N(NC(N)=O)C2(N)N(NC(N)=O)C(C)=C(C(=O)OC)C12C#N (configuration not stated)
6. CC1CC(=O)C2CC(CO)=CCCC2C1(C)CC/C(=C/CO)CO (configuration not stated)
7. Clc1ccc(C2ON=C(c3ccccc3)N2C23CC4CC(CC(C4)C2)C3)cc1 (configuration not stated)
8. CSC(=S)N/N=C(\C)c1ccc(S(=O)(=O)N(C)c2ccccc2)cc1

Return:
["> 100 µM (inactive)", "36.8 µM (inactive)", "38.3 µM (inactive)", "12.4 µM (inactive)", "> 100 µM (inactive)", "> 100 µM (inactive)", "> 10 µM (inactive)", "89.7 µM (inactive)"]

Take each entry in turn and give its GI50.
1. COc1cc(/C=C2\N=C(c3ccccc3)N(c3ccc(S(=O)(=O)Nc4nccs4)cc3)C2=O)ccc1O
2. C=CCOC1=C(OC(C)=O)C(C2COC(C)(C)O2)OC1=O (configuration not stated)
3. NCCCN1CCN(CC(=O)O)CCN(CCCN)CCN(CC(=O)O)CC1
4. COC12CC(O)=C(C(C)=O)C(=O)C1(C)c1c(OC(C)=O)c(C)c(O)c(C(C)=O)c1O2 (configuration not stated)
5. COc1cc(NC(C)=O)ccc1C(=O)N/N=C/c1ccco1
6. CCCCCCCCCCCC(=O)OCC(O)CO (configuration not stated) [GLYCEROL MONOLAURATE]

Return:
1: > 100 µM (inactive); 2: > 100 µM (inactive); 3: > 100 µM (inactive); 4: 17.3 µM (inactive); 5: > 100 µM (inactive); 6: > 100 µM (inactive)
